# method: Stability of compound under temperature stress assessed as compound degradation at 50 degreeC measured after 7 days using amorphous form of sample
# Format: physicochemical
# test-conditions: time 7 day; read-out: Drug degradation
parameter-measured: degraded at 168 h (%)
Expressed in %, but write only the number.

1) CCOC(=O)Cc1ccc(Nc2cc(Nc3ccccc3Cl)c(C(N)=O)cn2)nc1: 1

Next:
## Input Bench note: what degraded at 168 h did `COC(=O)Cc1ccc(Nc2cc(Nc3ccccc3Cl)c(C(N)=O)cn2)nc1` show?
## Output 11

###

Quick record: pIC50, Tyrosine-protein kinase JAK1 (Homo sapiens, UniProt P23458).
Field pIC50 (float): negative decimal logarithm of the concentration in molar.

Example entries and their recorded answers appear below.
1. CCOC(=O)CCc1ccc(Nc2cc(Nc3ccccc3Cl)c(C(N)=O)cn2)nc1: 7.57
2. CCOC(=O)Cc1ccc(Nc2cc(Nc3ccccc3Cl)c(C(N)=O)cn2)nc1: 7.70
3. CCOC(=O)Cc1ccc(Nc2cc(Nc3ccccc3OC)c(C(N)=O)cn2)nc1: 7.72
4. COc1ccccc1Nc1cc(Nc2ccc(CC(=O)O[C@H]3CCOC3)cn2)ncc1C(N)=O: 8.30
5. COC[C@H](C)OC(=O)Cc1ccc(Nc2cc(Nc3ccccc3OC)c(C(N)=O)cn2)nc1: 9.00
6. COC(=O)Cc1ccc(Nc2cc(Nc3ccccc3Cl)c(C(N)=O)cn2)nc1: 8.05
7. COc1ccccc1Nc1cc(Nc2ccc(CC(=O)O[C@@H]3CCOC3)cn2)ncc1C(N)=O: 8.52
8. CC(C)OC(=O)Cc1ccc(Nc2cc(Nc3ccccc3Cl)c(C(N)=O)cn2)nc1: 7.54

## Input Which pIC50 is listed for `CCOC(=O)COc1ccc(Nc2cc(Nc3ccccc3Cl)c(C(N)=O)cn2)nc1` ?
## Output 7.16

## Input Query `COCCOC(=O)Cc1ccc(Nc2cc(Nc3ccccc3OC)c(C(N)=O)cn2)nc1` next
## Output 8.22

## Input Follow-up entry: `NC(=O)c1cnc(Nc2ccc(CC(=O)O)cn2)cc1Nc1ccccc1Cl`
## Output 8.05

## Input Same for `CCOC(=O)c1ccc(Nc2cc(Nc3ccccc3Cl)c(C(N)=O)cn2)nc1`
## Output 6.92

## Input Then `COC[C@@H](C)OC(=O)Cc1ccc(Nc2cc(Nc3ccccc3OC)c(C(N)=O)cn2)nc1` ?
## Output 8.30
